# System: Aeromonas hydrophila
# method: MIC against Gram-negative bacteria: Aeromonas hydrophila
# Format: cell-based
# protocol_conditions: Aeromonas hydrophila; 5×10^5 CFU/mL; 10 h cultivation at 37° C.
Please go through the items and note down their MIC against A. hydrophila.
State the value with its unit after it.

Output MIC against A. hydrophila of PRT1484 (DTDECLGTPCQQRCKNSIGSYKCSCRTGFHLHGNRHSCV; listed as Homo sapiens) 50 µg/mL

Output MIC against A. hydrophila of PRT1493 (QQAECPGGCRNGGFCNERRICECPDGFHGPHCE; listed as Homo sapiens) 50 µg/mL

Output MIC against A. hydrophila of PRT1408 (NEICSVDCGSHGVCMGGTCRCEEGWTGPACNQ; listed as Homo sapiens) 12.5 µg/mL

Output MIC against A. hydrophila of PRT1442 (DKDECAKDNGGCQHECVNTFGSYLCRCRNGYWLHENGHDCK; listed as Homo sapiens) 25 µg/mL

Output MIC against A. hydrophila of PRT1472 (LEHPCASLCCGHGTCIDGIGSFSCDCRSGWEGRFCQ; listed as Homo sapiens) 25 µg/mL

Output MIC against A. hydrophila of PRT1391 (PLPVCQEQCSGHGTFLLDAGVCSCDPKWTGSDCS; listed as Homo sapiens) 12.5 µg/mL

Output MIC against A. hydrophila of PRT1356 (KEQRCPSDCHGQGRCVDGQCICHEGFTGLDCG; listed as Homo sapiens) 25 µg/mL

Output MIC against A. hydrophila of PRT1392 (TELCTMECGSHGVCSRGICQCEEGWVGPTC; listed as Homo sapiens) 25 µg/mL

Output MIC against A. hydrophila of PRT1398 (EVDCLDPTCSSHGVCVNGECLCSPGWGGLNCEL; listed as Homo sapiens) 25 µg/mL

Output MIC against A. hydrophila of PRT1416 (IEICAADCGGHGVCVGGTCRCEDGWMGAACDQ; listed as Homo sapiens) 25 µg/mL

Output MIC against A. hydrophila of PRT1448 (ACREGRFGQSCQEQCPGISGCRGLTFCLPDPYGCSCGSGWRGSQCQ; listed as Homo sapiens) 12.5 µg/mL

Output MIC against A. hydrophila of PRT1402 (DGCPDLCNGNGRCTLGQNSWQCVCQTGWRGPGCN; listed as Homo sapiens) 25 µg/mL

Output MIC against A. hydrophila of PRT1354 (RDRQCPRDCSNRGLCVDGQCVCEDGFTGPDCA; listed as Homo sapiens) 12.5 µg/mL

Output MIC against A. hydrophila of PRT1390 (EEDCLDPMCSNHGICVKGECHCSTGWGGVNCET; listed as Homo sapiens) 50 µg/mL

Output MIC against A. hydrophila of PRT1352 (SEPECPGNCHLRGRCIDGQCICDDGFTGEDCS; listed as Homo sapiens) 12.5 µg/mL

Output MIC against A. hydrophila of PRT1436 (AERNCRNPELNPCSVNAQCIEERQGDVTCVCGVGWAGDGYICG; listed as Homo sapiens) 50 µg/mL

Output MIC against A. hydrophila of PRT1445 (PCLNDCGPYGQCLLLRRHSYLYASCSCKAGWRGWSCT; listed as Homo sapiens) 50 µg/mL

Output MIC against A. hydrophila of PRT1401 (VCHPRCIEHGTCKDGKCECREGWNGEHCT; listed as Homo sapiens) 25 µg/mL

---

# Tested on: E. coli BL21
# method: MIC against Gram-negative bacteria: E. coli BL21
# Type: cell-based
# protocol_conditions: E. coli BL21; 5×10^5 CFU/mL; 10 h cultivation at 37° C.
property_label: MIC against E. coli BL21 (µg/mL)
Enter your answer as a number in µg/mL; do not include the unit.

Please look at PRT1467 (QPQDCPPSTCLNGGTCHLGTRHHLACLCPEGFTGLYCE; listed as Homo sapiens) and tell me its recorded MIC against E. coli BL21 on E. coli BL21. 50

Please look at PRT1434 (DVDECKYHPCYPGVHCINLSPGFRCDACPVGFTGPMVQ; listed as Homo sapiens) and tell me its recorded MIC against E. coli BL21 on E. coli BL21. 12.5

Please look at PRT1383 (GTRSCPWDCGEGGRCVDGRCVCWPGYTGEDC; listed as Homo sapiens) and tell me its recorded MIC against E. coli BL21 on E. coli BL21. 12.5

Please look at PRT1437 (DVNECADGAHPPCHASARCRNTKGGFQCLCADPYELGDDGRTCV; listed as Homo sapiens) and tell me its recorded MIC against E. coli BL21 on E. coli BL21. 25

Please look at PRT1359 (SREICPVPCSEEHGTCVDGLCVCHDGFAGDDCN; listed as Homo sapiens) and tell me its recorded MIC against E. coli BL21 on E. coli BL21. 12.5

Please look at PRT1433 (PPRRCDSNPCFRGVQCTDSRDGFQCGPCPEGYTGNGITCI; listed as Homo sapiens) and tell me its recorded MIC against E. coli BL21 on E. coli BL21. 12.5

Please look at PRT1390 (EEDCLDPMCSNHGICVKGECHCSTGWGGVNCET; listed as Homo sapiens) and tell me its recorded MIC against E. coli BL21 on E. coli BL21. 12.5

Please look at PRT1387 (IMDDCSTNCNGNGECISGHCHCFPGFLGPDCA; listed as Homo sapiens) and tell me its recorded MIC against E. coli BL21 on E. coli BL21. 12.5

Please look at PRT1385 (GVRSCPGDCNQRGRCEDGRCVCWPGYTGTDC; listed as Homo sapiens) and tell me its recorded MIC against E. coli BL21 on E. coli BL21. 50

---

# Test system: Citrobacter diversus
# method: MIC against Gram-negative bacteria: Citrobacter diversus
# Assay type: cell-based
# protocol_conditions: C. diversus; 10 h cultivation at 37° C.; 5×10^5 CFU/mL
property_label: MIC (μg/mL) C. diversus (µg/mL)
Enter your answer as a number in µg/mL; do not include the unit.

Please look at PRT189 (SIDACASSPCFNRATCYTDLSTDTFVCNCPYGFVGSRCE; listed as Homo sapiens) and tell me its recorded MIC (μg/mL) C. diversus on Citrobacter diversus. 25

Please look at PRT874 (CNCNQIGSVHDRCNETGFCECREGAAGPKCDDCLPTHYWRQGCYP; listed as Homo sapiens) and tell me its recorded MIC (μg/mL) C. diversus on Citrobacter diversus. 12.5

Please look at PRT873 (CECYGHSNRCSYIDFLNVVTCVSCKHNTRGQHCQHCRLGYYRNGSAELDDENVCIE; listed as Homo sapiens) and tell me its recorded MIC (μg/mL) C. diversus on Citrobacter diversus. 25

Please look at PRT842 (CGCSFHSHCRKRGPGFCDECQDWTWGEHCERCRPGSFGNATGSRGCRP; listed as Homo sapiens) and tell me its recorded MIC (μg/mL) C. diversus on Citrobacter diversus. 12.5

Please look at PRT866 (CQCHGHAARCAARARPPRCHCRHHTTGPGCESCRPSHRDWPWRPATPRHPHPCLP; listed as Homo sapiens) and tell me its recorded MIC (μg/mL) C. diversus on Citrobacter diversus. 12.5

Please look at PRT769 (CNGVDHGCEFQCVSEGLSYRCLCPEGRQLQADGKSC; listed as Homo sapiens) and tell me its recorded MIC (μg/mL) C. diversus on Citrobacter diversus. 12.5

Please look at PRT226 (DIDECESGAHQCSEAQTCVNFHGGYRCVDTNRCVEPYIQVSENRCL; listed as Homo sapiens) and tell me its recorded MIC (μg/mL) C. diversus on Citrobacter diversus. 50

---

Please go through the items and note down their MIC against E. cloacae.
# Tested on: Enterobacter cloacae
# method: MIC against Gram-negative bacteria: Enterobacter cloacae
# Type: cell-based
# protocol_conditions: Enterobacter cloacae; 5×10^5 CFU/mL; 10 h cultivation at 37° C.
Enter your answer as a number in µg/mL; do not include the unit.

Output MIC against E. cloacae of PRT1460 (CDCDTVGTRNGSILCDQIGGQCNCKRHVSGRQCNQCQNGFYNLQELDPDGCSP; listed as Homo sapiens) 25

Output MIC against E. cloacae of PRT1376 (ATRMCPADCRGRGRCVQGVCLCHVGYGGEDCG; listed as Homo sapiens) 50

Output MIC against E. cloacae of PRT1366 (ERLACPGACSGHGRCVDGRCLCHEPYVGADCG; listed as Homo sapiens) 12.5

Output MIC against E. cloacae of PRT1401 (VCHPRCIEHGTCKDGKCECREGWNGEHCT; listed as Homo sapiens) 12.5

Output MIC against E. cloacae of PRT1409 (RACHPRCAEHGTCKDGKCECSQGWNGEHCT; listed as Homo sapiens) 12.5

Output MIC against E. cloacae of PRT1404 (RAACPVLCSGNGQYSKGRCLCFSGWKGTECD; listed as Homo sapiens) 12.5

Output MIC against E. cloacae of PRT1396 (LGADCAKAACPVLCSGNGQYSKGTCQCYSGWKGAECD; listed as Homo sapiens) 25

Output MIC against E. cloacae of PRT1434 (DVDECKYHPCYPGVHCINLSPGFRCDACPVGFTGPMVQ; listed as Homo sapiens) 25

Output MIC against E. cloacae of PRT1477 (DIDECSENMCAQLCVNYPGGYTCYCDGKKGFKLAQDQKSCE; listed as Homo sapiens) 25
